The following compounds are listed with their measured growth values.
- System: PC-3 prostate
- TEST_DESCRIPTION: NCI-60 one-dose screen, 48 h (100 = growth as untreated, 0 = no growth, -100 = all killed)
- CONDITION_NOTES: 10 µM unless noted
About 83,000 compounds went through this panel and 20% of them were active in at least one assay; those are over-represented in the sample as a whole.
Express your answer in %, writing the number without its unit.

Example compounds with recorded growth:
| COMPOUND | growth, % |
| --- | --- |
| O=c1[nH]cnc2c1ccn2C1OC(CO)C(O)C1O (centres undefined) | 36.3 |
| CCN=C1C=CC(=C(c2ccc(N(CC)CC)cc2)c2ccc(N(CC)CC)cc2)c2ccccc21 | -66.8 |
| OC(c1ccc(Cl)cc1)(c1ccc(Cl)cc1)C(O)(c1ccc(Cl)cc1)c1ccc(Cl)cc1 | 33.5 |

Exercise: Looking for the measured growth of O=C(Nc1cc(-c2cccnc2)nc(NCCCN2CCOCC2)n1)c1cc(Br)cc(C(F)(F)F)c1 , can you help?
Key: 57.7

Exercise: Can you handle CCN(CC)c1ccc2cc(C(Nc3ccc(Br)c(C(F)(F)F)c3)c3nnnn3C(C)(C)C)c(=O)oc2c1 (centres undefined) next?
Key: 79.7

Exercise: Can you handle CCCCCn1c(C)cc(/C=C\c2ccc3cc(C)ccc3[n+]2C)c1C next?
Key: -47.9

Exercise: Can you handle C#C[C@]1(O)CC[C@H]2[C@@H]3CC=C4c5nc(Nc6ccc(OC)cc6OC)sc5CC[C@]4(C)[C@H]3CC[C@@]21C next?
Key: -3.17

Exercise: Can you handle Cc1ccc2c(n1)C(=O)C(Cl)=C(Nc1ccc(N3CCN(C)CC3)cc1)C2=O next?
Key: 68.7

Exercise: Can you handle CN(C)c1ccc(-c2ccc(-c3ccc(C(=N)N)cc3)s2)cc1 next?
Key: -91.6

====

- System: SK-MEL-5 melanoma
- TEST_DESCRIPTION: NCI-60 one-dose screen, 48 h
- CONDITION_NOTES: 10 µM unless noted
This is part of a sample that, as a whole, favours compounds with a hit. Of some 83,000 tested, about 20% had one in any assay. Calls of active or inactive are those of the source. How the source made its calls: active means growth percent below 10; inactive means the rest.
Reply using exactly one outcome from active, inactive

Here are 8 compounds together with their reported answers.
| COMPOUND | ASSAYED_TARGET | ANSWER_LABEL |
| --- | --- | --- |
| C#C[C@]1(O)CC[C@H]2[C@@H]3CC=C4c5nc(N)sc5CC[C@]4(C)[C@H]3CC[C@@]21C | SK-MEL-5 melanoma | inactive |
| Cc1cc(C)c(O)c(CNCCCNCc2cc(C)cc(C)c2O)c1 | SK-MEL-5 melanoma | inactive |
| CN(C)C(=S)Sc1ccc([N+](=O)[O-])cc1[N+](=O)[O-] | SK-MEL-5 melanoma | inactive |
| CC1(C)C(=O)/C(=C\c2ccco2)C[C@]2(C)[C@H]3CC=C4[C@@H]5C[C@](C)(C(=O)O)CC[C@]5(C)CC[C@@]4(C)[C@]3(C)CC[C@@H]12 | SK-MEL-5 melanoma | active |
| COc1ncnc2c(-c3ccccc3)cn(COCc3ccccc3)c12 | SK-MEL-5 melanoma | active |
| COc1ccc(C2=C(c3cn(C)c4ccccc34)C(=O)OC2)cc1OC | SK-MEL-5 melanoma | inactive |
| CC1(C)CC[C@]23CC[C@]4(C)[C@H](CC[C@@H]5[C@@]6(C)C/C(=C/c7ccncc7)C(=O)C(C)(C)[C@@H]6CC[C@]54C)[C@H]2[C@H]1OC3=O | SK-MEL-5 melanoma | inactive |
| CN(Cc1cccc(C(F)(F)F)c1)C(=O)[C@@H](CC(=O)N1CCC(N2CCCCC2)CC1)N1C(=O)[C@@H](N2C(=O)OC[C@@H]2c2ccccc2)[C@H]1/C=C/c1ccccc1 | SK-MEL-5 melanoma | inactive |

Exercise: Query: recorded result category for CNC(=O)c1cc(Oc2ccc3nc(NC(=O)c4ccc5ncccc5c4)sc3c2)ccn1 in this test
Key: inactive

Exercise: Can you handle Cn1ncc2c(Nc3ccc(O)cc3)nc(Cl)nc21 next?
Key: inactive

Exercise: Can you handle COc1ccc(C2CC(c3ccc4ccccc4c3)=NN2c2nc(O)c(C3=c4cc(OC)ccc4=NC3=O)s2)cc1 (stereo unspecified) next?
Key: active

Exercise: Can you handle Cc1cccc(C[C@H](NC(=O)Nc2ccc(Cl)cc2F)C(=O)N[C@@H]2C(=O)N3C[C@H](OC(=O)CCN(C)C)C[C@H]3C(=O)N3CCCC[C@H]3C(=O)N[C@@H](C)C(=O)N3C[C@H](C)C[C@H]3C(=O)O[C@H]2C)c1 next?
Key: active

Exercise: Can you handle Cn1cc(-c2noc(C(=O)c3cn(C)c4ncc(Br)cc34)n2)c2ccccc21 next?
Key: inactive

Exercise: Can you handle O=C(N[C@@H]1CCCc2ccccc21)[C@H](CCC(=O)N1CCN(C2CCCCC2)CC1)N1C(=O)[C@@H](N2C(=O)OC[C@@H]2c2ccccc2)[C@H]1/C=C/c1ccccc1 next?
Key: active

Exercise: Can you handle CCN(CC)CCS(=O)(=O)CCNc1ccnc2cc(Cl)ccc12 next?
Key: inactive

Exercise: Can you handle Brc1ccc(-c2nnc3c4[nH]ccc4ncn23)cc1 next?
Key: inactive
